test system: K4 kissing-loop RNA reporter; assay: apparent KD of K4 kissing-loop reporter; higher = weaker reporter binding; settings: Eterna round: R107; input ligand: none
Measured attribute: apparent KD of K4 kissing-loop reporter (nM)
Numbers only, in nM.

CGAGUGAUGUUCGUUCGUUUAUUUCGGUGACAGGAUAUGCGGAAACGCAGAAGGGUCACCUUUGGGUUACCGGAAUUAACGUUAU [Ex FMN A 30] :: 561
ACGCUAGCUACCGAAAGGUAGCUAGCGAGUGAGGAUAUGUGGAAACACAGAAGGCACAGCACAGUGAUGUUGUGCGGCGAAAGCC :: 932

Then this sequence:
Fill blank: measured apparent KD of K4 kissing-loop reporter of the sequence AAAUACAUUUUAUUAUAUAACUUUUCAGAAGGAGCGUGGAAGUUCACAGGUAGGUCGCUGAAUAUUGGACUAGUGAUGUUAGUUA [JR_Nu_SSArginiA_Sub021] is ____.
253

###

test system: MS2 coat protein; assay: apparent KD of MS2 coat protein; designed switch direction (-1 OFF switch, 1 ON switch): 1; higher = weaker reporter binding; conditions: input ligand: FMN 200 uM
Please go through the items and note down their apparent KD of MS2 coat protein.
Answer format reminder: number followed by unit.

UUGCUCGUGUGAGGAUAUGCCGCCGUUUCGGCUGCAGAAGGUACUCUUAUACAUGAGGAUCACCCAUGUCUCUGUUGUUUCGUG [salish99_SSNG1_r04_936] (Eterna round: R96, puzzle: Same State NG 1) :: 0.0979 µM

Which measured apparent KD of MS2 coat protein value corresponds to AUUGCUAGCACAGGAUAUCAUGCGAAAAUUGCGUGAGAAGGGUGGACGCUGUCAUUCACGGAGGACAUGAGGAUCACCCAUGUC [SameState NG1 #78] (Eterna round: R96, puzzle: Same State NG 1) ?
0.0544 µM

###

system: MS2 coat protein; assay: apparent KD of MS2 coat protein; designed switch direction (-1 OFF switch, 1 ON switch): -1; higher = weaker reporter binding; details: input ligand: none
Measured attribute: apparent KD of MS2 coat protein (nM)
One number for each entry, in nM.

Please look at the items below and tell me apparent KD of MS2 coat protein for each one, in order.
1. UCGCCGCCCUUGGGCGGCGACAUGAGGAUCACCCAUGUCAAGCUUUUUGCUCGUUUUAUAGCCGGCCUUGGCCGGCA [Olib_3] (Eterna round: R97, puzzle: Sensor, turn-off variant 1)
2. ACAUGAGGAUCACCCAUGUCUGGCUGGUCUGCUCCGGUUGUUGAGGAUAUAGUUCGGUGUUCGCGCUAGAAGGUGAGGGCUGGC [Aenatbe mod 38] (Eterna round: R96, puzzle: Exclusion NG 3)
3. GGUGAGCUAGGAUAUGCUUUGGGAAAGCAUUCCUUCGAUAAACUUGAGGAUCACCCAAGUAGAAGGAGCUUGCC [salish99_ex2_r4_019] (Eterna round: R97, puzzle: Exclusion 2)
4. AUUCUUCAUAUCACAUGAGGAUCACCCAUGUUAUUCAUCGCGUAGGAUAUCGAGAAUUUUAAAUACGAGAAGGACGAAUUGAUA [JR_ExcNG3_Sub071] (Eterna round: R96, puzzle: Exclusion NG 3)

1: 29.4; 2: 39; 3: 11.9; 4: 35.3

Answer for every listed entry: what is its apparent KD of MS2 coat protein? The entries follow.
1. GGAUUUUCUGAGGAUAUUGCAUCACCCGAUUUAUAAGAAGGCAGAACAUGAGGAUCACCCAUGUGGGUCUCUAG [Bingo-Bango-26] (Eterna round: R97, puzzle: Exclusion 6)
2. CAAACGGCUUUAGGAUAUGACUUUUCGUACAUGAGGAUCACCCAUGUCAGGACUGGUGGUGCGAGUCAGAAGGAGAGUCAAGAA [Eternabot solution 30] (Eterna round: R96, puzzle: Exclusion NG 2)
3. UUCACAUGGACAUGAGAUCACAUGAGGAUCACCCAUGUGAAUAACAAGCUUUUUGUUCGUCUUAUGUCCAAUAAUAA [Stov1/14-D1] (Eterna round: R97, puzzle: Sensor, turn-off variant 1)
4. UAACUGUGAGGAUAUUCGUAGUACACGGAGACGUGUAUUACGGAGAAGGCACAUGAGGAUCACCCAUGUUCCUU [Default title] (Eterna round: R97, puzzle: Exclusion 4)
5. CGGACACCAGUAGGAUAUGUAGGAUAUGUUGUUGAGGAUCACCCAACAAAUUAAACGACAGAAGGACAGAAGGACUGUUCUCCU [pwkr exNG2 2xFMN 1xF5.2] (Eterna round: R96, puzzle: Exclusion NG 2)
6. CGGUGUAGAGGAUAUACGUGAAUUUUGUUAUAUAAUAAUUUACAUGAGGAUCACCCAUGUAGAAGGCUAUAGCG [JR_Ex2_Sub084] (Eterna round: R97, puzzle: Exclusion 2)

24.5
176
13.1
17.4
24.7
24.2

###

tested on: K4 kissing-loop RNA reporter; experiment: apparent KD of K4 kissing-loop reporter; higher = weaker reporter binding; settings: Eterna round: R107; input ligand: arginine 13.2 mM;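 also: bound reporter read as fluorescence of individual clusters on recovered sequencing chips by microscopy, with normalized cluster intensities fitted with a binding model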
Measured attribute: apparent KD of K4 kissing-loop reporter (nM)
Answers are plain numbers, in nM.

As a guide, the following entries are already answered.
UUAGAGAUCUCAGGAUAUGAGUGAUGUUGGUGUCAAGAUCUGAGAUAGAAUUCUAUCUCAGAUCAAUCAGAAGGGAGAUCUCAUU [AK2.2 Exc FMN B] :: 294
GUAGACAGACUGCGGGCCUAGUCUACAGACUAGGAUAUCAGGAAACUGAGAAGGAGUCUAGUUGCAGUGAUGUUGCAAGAAUAAU [KL-SSFMN-A26] :: 115

Read the next record carefully.
What measured apparent KD of K4 kissing-loop reporter goes with AAUAAUGAUGUUUAGGAAAGUAAAAUGGAAGGAGCGUGCGAAAGCACAGGUAGGUCGCCAGUGAUGUUGGAACCUGAGCAUCAAA [#SwitchBubble 19 #K4Late] ?
633

###

Give measured apparent KD of MS2 coat protein for each item. Keep answers brief.
system: MS2 coat protein; experiment: apparent KD of MS2 coat protein; designed switch direction (-1 OFF switch, 1 ON switch): -1; higher = weaker reporter binding; conditions: input ligand: none
Answers are plain numbers, in µM.

CUGUGCACGCUGCGGUCCUACAUGAGGAUCACCCAUGUGGUCUGGUGGCGUGGGUCGCCGGACUUGGCUCGUCUUGA [salish99_S_TOV1_R5_023] (Eterna round: R97, puzzle: Sensor, turn-off variant 1) :: 0.0192
UUAAUUAAUUUAAUAUAAGAUCACAUGAGGAUCACCCAUGUAUAGGAUAUCAGCUCGUGUAGAGCUGAGAAGGAUACAUAAUAU [ExNG3/2-B3] (Eterna round: R96, puzzle: Exclusion NG 3) :: 0.155
AUCGUGUCAGGAUAUUGAAGUUCCGGGCAGUCCACGGAGCUCGAGAAGGGACAUGAGGAUCACCCAUGUCUCAU [Eternabot (L1) Solution 84] (Eterna round: R97, puzzle: Exclusion 4) :: 0.0186
CAUGAUUGGCGAGGAUAUUGAUCUAGUUGGCGACGAGAAGGCGCCUGUCACAUGAGGAUCACCCAUGUGAAUCUGGUGGAUGAG [Ex NG1 #88] (Eterna round: R96, puzzle: Exclusion NG 1) :: 0.0235

Query the reported apparent KD of MS2 coat protein for MS2 coat protein; item: ACAUGAGGAUCACCCAUGUUUGGCUGGUUUUCUCCGGCUGUCGAGGAUAUAGUCCGGUAUCCGCGCUAGAAGGUGAGGGCUGGC [Aenatbe mod 5] (Eterna round: R96, puzzle: Exclusion NG 3)
0.0204

###

system: MS2 coat protein; assay: apparent KD of MS2 coat protein; designed switch direction (-1 OFF switch, 1 ON switch): 1; higher = weaker reporter binding; conditions: input ligand: microRNA oligo, concentration not stated
# apparent KD of MS2 coat protein >= 60 nM gives MET, anything below gives NOT MET

GCGAGCGUACUUGCAGACAUGAGGAUCACCCAUGUAAAUGGGAAGGAUAUGGUACCGUUUCGGUACCAGAAGGUCCUAAGUGAU [salish99_SSNG3_r04_301] (Eterna round: R96, puzzle: Same State NG 3) :: MET
GUGUGUUGCGGGCAGGAUAUGUACUUGAGUACAUGAGGAUCACCCAUGUGCGGGUGUUUCACCCGACAGAAGGGCCUAUCGCGAC [JL-ss2-3.25 ViennaUCT mod] (Eterna round: R96, puzzle: Same State 2) :: MET
CCAUAGUACAAUUUAGAUCUACAUGAGGAUCACCCAUGUACUGAGGAUAUCAGCUCGUUUAGAGCUGAGAAGGCAGAAGUACUU [SSNG3/6-A3] (Eterna round: R96, puzzle: Same State NG 3) :: MET
AUUAAUAAUCUAGGAUAUCACGUCGAAUAGACGUGAGAAGGAGAUCAUAACAUGAGGAUCACCCAUGUAUUACAUGAAGUUAAU [SSNG1/7-B1] (Eterna round: R96, puzzle: Same State NG 1) :: NOT MET
GUGGUCAGACAUGAGGAUCACCCAUGUGGAAUAAAUAACGGUGAGGAUAUGCAAUAUAGGAUAUAGUAGAAGGCAUGAUUGGUG (Eterna round: R96, puzzle: Same State NG 3) :: MET

Could you tell me if the measured apparent KD of MS2 coat protein of GUAGCAUACCGAGGAUAUUCAUAUUAAAACAUGAGGAUCACCCAUGUUUAGGCCAAAAGGCCUUGGGAGAAGGCGGAAUGCUAC [Xeonanis - 20 Mod4] (Eterna round: R96, puzzle: Same State NG 2) reaches 60 nM or more?
NOT MET
